# Study system: T1, CSTF2 RRM A93E (Homo sapiens, UniProt P33240 1-107, A93E)
# T1 sequence: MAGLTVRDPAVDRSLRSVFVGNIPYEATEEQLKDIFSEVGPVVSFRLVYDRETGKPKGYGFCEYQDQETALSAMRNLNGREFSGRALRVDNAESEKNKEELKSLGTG
# Method description: ITC
Observed property: Kd (µM)
The reply should contain only the number, in µM.

Quick one: Kd of AUUUUAUGUUUCAGGU (ssRNA) [SVL RNA] ? 3.88
